test system: MCMV strain Smith; assay: Plaque reduction assay for antiviral activity, MCMV in MEF cells; type: cell-based; settings: 168 h; MEF cells, 7-day incubation; read-out: MCMV EC50
OBSERVATION_TYPE: EC50 (nM)
Form entry: value (nM) — number only.

For the molecule Nc1ccn(C[C@H]2COP(=O)(O)CO2)c(=O)n1 [cCDV, Cyclic Cidofovir, reference compound] , what EC50 is on record? 230

---

tested on: human foreskin fibroblast (HFF) cells
Where a name gives a salt, the structure may show the parent alone.
Recorded measurements of CC50, one per entry
Kindly answer with a numeric value in µM, unit omitted.

CCCCCCCCCCCCCCCCOP1(=O)COC(Cn2ccc(N)nc2=O)CO1 (mixture of isomers) = 83
CCCCCCCCCCCCCCCCCCCCCCOP(=O)(O)COC(CO)Cn1ccc(N)nc1=O (stereo not drawn) [DC-CDV, Docosyl Cidofovir, Sodium Salt] = 79.6

Write down the reported CC50 of CCCCCCCCCCCCCCCCCCCCOP1(=O)CO[C@@H](Cn2ccc(N)nc2=O)CO1 (stereo partly drawn) , test system: human foreskin fibroblast (HFF) cells. 86.1
